System: CCRF-CEM leukemia
Test: NCI tumour cell line growth inhibition, 48 h; in the data active means GI50 below about 0.43 µM; inactive means the rest
Outcome (select one): 1.0 = active, 0.0 = inactive

Solved entries:
>  <compound>
COc1ccc(NC([Se])=NC23CC4CC(CC(C4)C2)C3)cc1

>  <discrete label>
0.0

$$$$
>  <compound>
CCCN(CCC)c1ccc(/C=C/c2ccc3cc(OCC)ccc3n2)cc1

>  <discrete label>
0.0

$$$$
>  <compound>
C=C1C(=O)O[C@H]2[C@H]1CC/C(COC(=O)C(=O)c1cn(C)c3ccc(Cl)cc13)=C\CC[C@@]1(C)O[C@@H]21

>  <discrete label>
1.0

$$$$

Q: Dear all, I need the recorded test outcome for "CC(=O)N1C/C(=C/c2ccc(Cl)cc2)C(=O)/C(=C/c2ccc(Cl)cc2)C1" , thank you.
Ans: 1.0

Q: Query: recorded result category for "COc1ccc(-c2cc(-c3cccn3C)c(C#N)c(=O)[nH]2)cc1OC" in this test
Ans: 0.0

Q: What outcome does the record of this test show for "Cc1ccc(NC2=C(Cl)C(=O)N(Cc3ccc(Cl)cc3)C2=O)cc1O" ?
Ans: 0.0

Q: Per the records of this test, what outcome belongs to Cc1cc(O)cc2c1[C@]1(C)CCC3C(C)(C)CCC[C@]3(C)[C@H]1C2 (some centres undefined) ?
Ans: 0.0

Q: For "CC(C)C[C@H](NC(=O)Cn1ccc(NCc2ccccc2)cc1=O)B(O)O" , which call appears in the assay record?
Ans: 0.0

Q: Test call for this compound, please: "CCC(=O)Nc1ccccc1C#C/C=C\C#Cc1ccccc1SC"
Ans: 0.0
